# System: Klebsiella pneumoniae
# runDescription: Antimicrobial activity against Klebsiella pneumoniae MTCC 3384 at 100 ug/ml after 24 hrs by disc diffusion method
# Assay type: functional
# measurementConditions: MTCC 3384, 24 h, read-out: DIZ
assayReadout: zone of inhibition at 100 µg/mL (mm)

{"compound": "Cc1c(-c2nnc(-c3ccc(Cl)cc3)o2)c(-c2ccccc2)nn1-c1ccccc1", "assayReadout": "zone of inhibition at 100 µg/mL", "number": 12}
{"compound": "COc1ccc(-c2nnc(-c3c(-c4ccccc4)nn(-c4ccccc4)c3C)o2)cc1", "assayReadout": "zone of inhibition at 100 µg/mL", "number": 11}
{"compound": "Cc1c(-c2nnc(-c3ccc([N+](=O)[O-])cc3)o2)c(-c2ccccc2)nn1-c1ccccc1", "assayReadout": "zone of inhibition at 100 µg/mL", "number": 10}
{"compound": "Cc1c(-c2nnc(-c3ccc(Cl)cc3)o2)c(-c2ccc(Cl)cc2)nn1-c1ccccc1", "assayReadout": "zone of inhibition at 100 µg/mL", "number": 11}
{"compound": "Cc1c(-c2nnc(-c3ccc([N+](=O)[O-])cc3)o2)c(-c2ccc([N+](=O)[O-])cc2)nn1-c1ccccc1", "assayReadout": "zone of inhibition at 100 µg/mL", "number": 16}
{"compound": "CN(C)[C@@H]1C(O)=C(C(N)=O)C(=O)[C@@]2(O)C(O)=C3C(=O)c4c(O)cccc4[C@@](C)(O)[C@H]3C[C@@H]12 [TETRACYCLINE]", "assayReadout": "zone of inhibition at 100 µg/mL", "number": 20}
{"compound": "Cc1c(C(=O)NN)c(-c2ccccc2)nn1-c1ccccc1", "assayReadout": "zone of inhibition at 100 µg/mL", "number": 8}
{"compound": "Cc1c(-c2nnc(-c3ccccc3)o2)c(-c2ccc([N+](=O)[O-])cc2)nn1-c1ccccc1", "assayReadout": "zone of inhibition at 100 µg/mL", "number": 12}

---

# MIC listing for each entry below
# System: Bacillus cereus
# runDescription: Antimicrobial activity against Bacillus cereus MTCC 8372 after 24 hrs by microdilution method
# Type: functional
# measurementConditions: MTCC 8372, 24 h
assayReadout: MIC (µg/mL)

{"compound": "Cc1c(-c2nnc(-c3ccc([N+](=O)[O-])cc3)o2)c(-c2ccc([N+](=O)[O-])cc2)nn1-c1ccccc1", "assayReadout": "MIC", "number": 20}
{"compound": "COc1ccc(-c2nn(-c3ccccc3)c(C)c2-c2nnc(-c3ccccc3)o2)cc1", "assayReadout": "MIC", "number": 50}
{"compound": "COc1cc(-c2nnc(-c3c(-c4cc(OC)c(OC)c(OC)c4)nn(-c4ccccc4)c3C)o2)cc(OC)c1OC", "assayReadout": "MIC", "number": 20}
{"compound": "COc1cc(-c2nn(-c3ccccc3)c(C)c2-c2nnc(-c3ccccc3)o2)cc(OC)c1OC", "assayReadout": "MIC", "number": 20}
{"compound": "COc1ccc(-c2nn(-c3ccccc3)c(C)c2-c2nnc(-c3ccccc3)o2)cc1OC", "assayReadout": "MIC", "number": 35}
{"compound": "CN(C)[C@@H]1C(O)=C(C(N)=O)C(=O)[C@@]2(O)C(O)=C3C(=O)c4c(O)cccc4[C@@](C)(O)[C@H]3C[C@@H]12 [TETRACYCLINE]", "assayReadout": "MIC", "number": 4}
{"compound": "COc1cc(-c2nnc(-c3c(-c4ccccc4)nn(-c4ccccc4)c3C)o2)cc(OC)c1OC", "assayReadout": "MIC", "number": 35}
{"compound": "Cc1c(C(=O)O)c(-c2ccccc2)nn1-c1ccccc1", "assayReadout": "MIC", "number": 30}
{"compound": "Cc1c(C(=O)NNC(=O)c2ccccc2)c(-c2ccccc2)nn1-c1ccccc1", "assayReadout": "MIC", "number": 25}
{"compound": "Cc1c(-c2nnc(-c3ccc(Cl)cc3)o2)c(-c2ccccc2)nn1-c1ccccc1", "assayReadout": "MIC", "number": 40}
{"compound": "Cc1c(C(=O)NN)c(-c2ccccc2)nn1-c1ccccc1", "assayReadout": "MIC", "number": 40}
{"compound": "Cc1c(-c2nnc(-c3ccccc3)o2)c(-c2ccccc2)nn1-c1ccccc1", "assayReadout": "MIC", "number": 35}
{"compound": "Cc1c(-c2nnc(-c3ccccc3)o2)c(-c2ccc(Cl)cc2)nn1-c1ccccc1", "assayReadout": "MIC", "number": 40}
{"compound": "Cc1c(-c2nnc(-c3ccccc3)o2)c(-c2ccc([N+](=O)[O-])cc2)nn1-c1ccccc1", "assayReadout": "MIC", "number": 20}
{"compound": "Cc1c(-c2nnc(-c3ccc([N+](=O)[O-])cc3)o2)c(-c2ccccc2)nn1-c1ccccc1", "assayReadout": "MIC", "number": 25}
{"compound": "Cc1c(-c2nnc(-c3ccc(Cl)cc3)o2)c(-c2ccc(Cl)cc2)nn1-c1ccccc1", "assayReadout": "MIC", "number": 40}
{"compound": "COc1ccc(-c2nnc(-c3c(-c4ccccc4)nn(-c4ccccc4)c3C)o2)cc1", "assayReadout": "MIC", "number": 35}
